molecular target: Glucose-6-phosphate 1-dehydrogenase (Homo sapiens, UniProt P11413); test: Inhibition of human G6PDH using NADP as substrate by Lineweaver-Burke plot
Sequence (P11413 whole entry): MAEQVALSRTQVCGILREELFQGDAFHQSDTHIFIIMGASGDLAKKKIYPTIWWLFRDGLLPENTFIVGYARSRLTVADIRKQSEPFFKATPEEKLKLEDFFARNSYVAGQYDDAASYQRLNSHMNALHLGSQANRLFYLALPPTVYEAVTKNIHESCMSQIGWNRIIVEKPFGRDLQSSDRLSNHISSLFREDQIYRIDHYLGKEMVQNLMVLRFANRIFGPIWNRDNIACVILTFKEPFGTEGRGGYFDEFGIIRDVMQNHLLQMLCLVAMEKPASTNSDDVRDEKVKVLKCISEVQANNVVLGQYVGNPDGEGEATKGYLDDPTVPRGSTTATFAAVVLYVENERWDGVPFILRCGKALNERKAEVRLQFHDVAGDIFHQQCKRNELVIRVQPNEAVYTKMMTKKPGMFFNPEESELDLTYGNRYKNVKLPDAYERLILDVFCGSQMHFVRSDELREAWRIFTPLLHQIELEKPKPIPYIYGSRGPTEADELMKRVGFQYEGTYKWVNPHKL
Attribute measured: pKi
Reminder that pKi is minus the log10 of a molar concentration.

Compound | Attribute measured | Value reported
C[C@]12CC[C@H](O)CC1=CC[C@@H]1[C@@H]2CC[C@]2(C)C(=O)CC[C@@H]12 | pKi | 5.21

Specify reported pKi for the compound shown: C[C@]12CC[C@H](O)C[C@@H]1CC[C@@H]1[C@@H]2CC[C@]2(C)C(=O)CC[C@@H]12 [EPIANDROSTERONE]
5.52

----------
Target: Glucose-6-phosphate 1-dehydrogenase (Trypanosoma brucei)
Sequence (Q9GRG7 whole entry): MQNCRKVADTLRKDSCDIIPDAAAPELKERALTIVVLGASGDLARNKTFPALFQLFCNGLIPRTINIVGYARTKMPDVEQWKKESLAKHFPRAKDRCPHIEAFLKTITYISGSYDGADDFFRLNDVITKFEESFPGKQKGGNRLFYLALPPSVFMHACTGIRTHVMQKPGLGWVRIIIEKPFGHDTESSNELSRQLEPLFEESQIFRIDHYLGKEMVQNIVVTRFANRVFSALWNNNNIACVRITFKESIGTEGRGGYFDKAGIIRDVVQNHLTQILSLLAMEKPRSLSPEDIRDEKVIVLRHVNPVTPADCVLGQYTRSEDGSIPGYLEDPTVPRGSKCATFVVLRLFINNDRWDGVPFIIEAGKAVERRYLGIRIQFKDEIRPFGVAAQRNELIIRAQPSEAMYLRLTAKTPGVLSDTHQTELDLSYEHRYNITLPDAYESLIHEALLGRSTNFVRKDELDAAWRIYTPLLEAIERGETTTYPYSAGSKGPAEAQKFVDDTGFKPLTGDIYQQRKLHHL
Test: Inhibition of Trypanosoma brucei G6PDH using NADP as substrate by Lineweaver-Burke plot
Recorded pKi, one value per entry.
For clarity, pKi is expressed as the negative log10 of concentration in mol/L.

Molecule | pKi
C[C@]12CC[C@H](O)CC1=CC[C@@H]1[C@@H]2CC[C@]2(C)C(=O)CC[C@@H]12 | 5.96

Next:
Fill in pKi for record C[C@]12CC[C@H](O)C[C@@H]1CC[C@@H]1[C@@H]2CC[C@]2(C)C(=O)CC[C@@H]12 [EPIANDROSTERONE]
6.34

----------
target: Glucose-6-phosphate 1-dehydrogenase (Trypanosoma brucei, UniProt Q9GRG7); assay: Inhibition of Trypanosoma brucei G6PDH using glucose-6-phosphate as substrate by Lineweaver-Burke plot
Attribute measured: Ki
Provide the measurement as a number trailed by its unit.

Compound | Attribute measured | Value reported
C[C@]12CC[C@H](O)C[C@@H]1CC[C@@H]1[C@@H]2CC[C@]2(C)C(=O)CC[C@@H]12 [EPIANDROSTERONE] | Ki | 490 nM

Then there is this compound:
Specify Ki for C[C@]12CC[C@H](O)CC1=CC[C@@H]1[C@@H]2CC[C@]2(C)C(=O)CC[C@@H]12 [PRASTERONE] and stop.
1700 nM
